# assay details: Long-term stability in spiked pooled human plasma
# test parameters: validation standard ULOV
recorded metric: Long-term stability, 6 weeks, 4°C, without daylight Accuracy [%] (%)
Express the result in % but write the number alone.

[
  {
    "compound": "CCOc1cc2ncc(C#N)c(Nc3ccc(OCc4ccccn4)c(Cl)c3)c2cc1NC(=O)/C=C/CN(C)C",
    "result value": 8.5
  },
  {
    "compound": "CCCS(=O)(=O)Nc1ccc(F)c(C(=O)c2c[nH]c3ncc(-c4ccc(Cl)cc4)cc23)c1F",
    "result value": 94.4
  },
  {
    "compound": "O=C1CN2Cc3c(ccc(Cl)c3Cl)N=C2N1 [Anagrelide]",
    "result value": 97.1
  },
  {
    "compound": "O=C(c1cc(Cc2n[nH]c(=O)c3ccccc23)ccc1F)N1CCN(C(=O)C2CC2)CC1",
    "result value": 105.6
  },
  {
    "compound": "C[C@H]1Oc2cc(cnc2N)-c2c(nn(C)c2C#N)CN(C)C(=O)c2ccc(F)cc21",
    "result value": 91.4
  }
]

Lab note: C[C@@H](Oc1cc(-c2cnn(C3CCNCC3)c2)cnc1N)c1c(Cl)ccc(F)c1Cl gave Long-term stability, 6 weeks, 4°C, without daylight Accuracy [%] of 83.8

Short answer for COc1cc(N2CCC(N3CCN(C)CC3)CC2)ccc1Nc1ncc(Cl)c(Nc2ccccc2P(C)(C)=O)n1 : Long-term stability, 6 weeks, 4°C, without daylight Accuracy [%] was 98.6

Sample CNC(=O)c1ccc(N2C(=S)N(c3ccc(C#N)c(C(F)(F)F)c3)C(=O)C2(C)C)cc1F [Enzalutamide] ; Long-term stability, 6 weeks, 4°C, without daylight Accuracy [%] observed: 95.0

Value of Long-term stability, 6 weeks, 4°C, without daylight Accuracy [%] reported for the compound N#CC[C@H](C1CCCC1)n1cc(-c2ncnc3[nH]ccc23)cn1 is 96.6

The measured Long-term stability, 6 weeks, 4°C, without daylight Accuracy [%] associated with COc1cc2ncnc(Nc3ccc(F)c(Cl)c3)c2cc1OCCCN1CCOCC1 reads 97.6

Recorded Long-term stability, 6 weeks, 4°C, without daylight Accuracy [%] (compound CS(=O)(=O)CCNCc1ccc(-c2ccc3ncnc(Nc4ccc(OCc5cccc(F)c5)c(Cl)c4)c3c2)o1 ): 99.9

----------
The entries below are paired with their reported Short-time stability (1h, 56°C) Accuracy [%].
# assay details: Short-term stability in spiked pooled human plasma (bench-top, 4 °C, 56 °C)
# test parameters: validation standard ULOV
Give just the number in %; leave the unit off.

// worked examples, Short-time stability (1h, 56°C) Accuracy [%] included
[
  {
    "compound": "CNC(=O)c1cc(Oc2ccc(NC(=O)Nc3ccc(Cl)c(C(F)(F)F)c3)cc2)ccn1",
    "result value": 34.6
  },
  {
    "compound": "COc1cc2nccc(Oc3ccc(NC(=O)NC4CC4)c(Cl)c3)c2cc1C(N)=O",
    "result value": 40.6
  }
]

Consider CNC(=O)c1ccccc1Sc1ccc2c(/C=C/c3ccccn3)n[nH]c2c1 . Its measured Short-time stability (1h, 56°C) Accuracy [%] is 46.2

response.value for CNC(=O)c1ccc(N2C(=S)N(c3ccc(C#N)c(C(F)(F)F)c3)C(=O)C2(C)C)cc1F [Enzalutamide] (field: Short-time stability (1h, 56°C) Accuracy [%]) = 50.9
